Hello, the source for this data is BindingDB's records for doi:10.1016/j.bioorg.2017.01.007, in case you need it.

Consider molecules characterized by their IC50 with Tyrosine-protein phosphatase non-receptor type 1 (Homo sapiens, UniProt P18031).
Sequence (P18031 whole entry): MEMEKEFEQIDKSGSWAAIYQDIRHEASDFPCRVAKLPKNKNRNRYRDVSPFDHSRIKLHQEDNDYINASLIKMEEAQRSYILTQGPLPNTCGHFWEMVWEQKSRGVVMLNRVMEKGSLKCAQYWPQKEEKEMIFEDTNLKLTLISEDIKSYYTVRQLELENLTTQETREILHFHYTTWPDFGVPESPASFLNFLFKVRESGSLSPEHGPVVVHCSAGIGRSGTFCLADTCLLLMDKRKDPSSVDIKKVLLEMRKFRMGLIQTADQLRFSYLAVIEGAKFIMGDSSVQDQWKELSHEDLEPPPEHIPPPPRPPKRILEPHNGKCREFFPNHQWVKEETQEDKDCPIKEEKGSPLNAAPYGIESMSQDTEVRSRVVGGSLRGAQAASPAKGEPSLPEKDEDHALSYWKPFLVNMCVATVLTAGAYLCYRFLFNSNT
quantity kind: IC50 (µM)

Worked examples, 2 molecules total:
> print(dat)
                              sample.smiles  number
1  COc1cc(/C=C2\SC(=O)NC2=O)ccc1OS(=O)(=O)c1ccc(Br)cc1    21.8
2  COc1cc(/C=C2\SC(=O)NC2=O)ccc1OS(=O)(=O)c1ccccc1    7.31

I = COc1cc(/C=C2\SC(=O)NC2=O)ccc1OS(C)(=O)=O
II = COc1cc(/C=C2\SC(=O)NC2=O)ccc1OS(=O)(=O)c1ccccc1[N+](=O)[O-]
III = COc1cc(/C=C2\SC(=O)NC2=O)ccc1OS(=O)(=O)c1ccc(C)cc1
Task: Please list these molecules in decreasing order of IC50. Hello, could you send the labels back in the order asked? Thank you.
Output: II, III, I
(II: 50.4 µM, III: 19 µM, I: 8.73 µM)
